experimental-system: MBP-FoxP1dN (Mus musculus, UniProt P58462 326-579)
Sequence: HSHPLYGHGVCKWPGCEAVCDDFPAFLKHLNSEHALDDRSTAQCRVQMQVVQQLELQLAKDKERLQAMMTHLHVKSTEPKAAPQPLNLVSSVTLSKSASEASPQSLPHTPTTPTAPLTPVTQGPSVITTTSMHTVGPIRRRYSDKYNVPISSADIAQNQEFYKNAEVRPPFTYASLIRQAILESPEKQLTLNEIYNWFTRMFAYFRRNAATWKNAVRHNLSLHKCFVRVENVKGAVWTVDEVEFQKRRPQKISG
protocol-text: PD-seq (MBP pull-down with sequencing); 20 mM Tris-HCl pH 7.5, 100 mM NaCl, 1.5 mM MgCl2, 0.4 uM protein, 0.1 uM dsDNA library, 30 min, room temperature, amylose pull-down; high values mean tight binding
experimental-parameters: protein: recombinant; tags: His6-MBP; chain copies: 2; dsDNA, one strand shown
Over roughly 16,000 sequences, “rpm ratio (pull-down/input)” has its median near 0.94; the highest 2% begin near 1.7. This is one part of a sample in which the highest values are shown more often than they occur.
property: binding signal

Field: example entries. Status: answers known.
In [3]: df
Out[3]:
                                   sequence                     measured_value
0  GATGATTGTTCTCCCAGCTGATGAATTCATACATTCGAGTAAACAAATTTTCCTAATCTTTCTGTTCAAGCGCCATCTAC   1.01 RPM ratio (pull-down/input)
1  GATGATTGTTCTCCCAGCTGATGAATTGACCGAGTCGAGTAAACAAATTTTCCTAATCTTTCTGTTCAAGCGCCATCTAC  0.835 RPM ratio (pull-down/input)

Give me binding signal for each of these sequences, listed below.
1. GATGATTGTTCTCCCAGCTGATGAATTCAATAGATCGAGTAAACAAATTTTCCTAATCTTTCTGTTCAAGCGCCATCTAC
2. GATGATTGTTCTCCCAGCTGATGAATTATCTTTCTCGAGTAAACAAATTTTCCTAATCTTTCTGTTCAAGCGCCATCTAC
3. GATGATTGTTCTCCCAGCTGATGAATTTATTTGATCGAGTAAACAAATTTTCCTAATCTTTCTGTTCAAGCGCCATCTAC

Result ::
0.887 RPM ratio (pull-down/input)
0.948 RPM ratio (pull-down/input)
1.2 RPM ratio (pull-down/input)

Dear colleague, could you please provide binding signal for the sequences listed below?
1. GATGATTGTTCTCCCAGCTGATGAATTCTCAGGGTCGAGTAAACAAATTTTCCTAATCTTTCTGTTCAAGCGCCATCTAC
2. GATGATTGTTCTCCCAGCTGATGAATTTATTATCTCGAGTAAACAAATTTTCCTAATCTTTCTGTTCAAGCGCCATCTAC
3. GATGATTGTTCTCCCAGCTGATGAATTGTTGCTGTCGAGTAAACAAATTTTCCTAATCTTTCTGTTCAAGCGCCATCTAC
4. GATGATTGTTCTCCCAGCTGATGAATTGTCACCCTCGAGTAAACAAATTTTCCTAATCTTTCTGTTCAAGCGCCATCTAC

Result ::
0.745 RPM ratio (pull-down/input)
1.41 RPM ratio (pull-down/input)
2 RPM ratio (pull-down/input)
1 RPM ratio (pull-down/input)
